molecules and their reported solubility
# methodDescription: Solubility in different solvents (aliquot addition until dissolution)
# Type: physicochemical
# particulars: organic solvent or mixture, thermodynamic from solid, Heptane

{"molecule": "O=c1c(-c2ccc(O)cc2)coc2cc(O)cc(O)c12 [Genistein]", "assayValue": "< 10.5 mg/mL"}

Asked: Report solubility for O.O.O=c1c(-c2ccc(O)cc2)coc2cc(O)cc(O)c12.[Na] [genistein sodium salt dihydrate] please.
Given back: < 9.9 mg/mL

###

# methodDescription: Aqueous solubility (slurry shaken ca. 24 hours, filtered, HPLC)
# Format: physicochemical
# particulars: aqueous buffer, thermodynamic from solid, Water/slurry pH 6.7, ambient temperature
property: solubility (µg/mL)
Kindly provide the numeric value in µg/mL only, without the unit symbol.

Asked: Quick one: solubility of O.O.O=c1c(-c2ccc(O)cc2)coc2cc(O)cc(O)c12.[Na] [genistein sodium salt dihydrate] ?
Given back: 707
